Experiment: qHTS of pediatric cancer cell lines to identify multiple opportunities for drug repurposing: Primary screen for RD cells (AID 1347104); also: nearly all actives have a fitted effect of over 55% in size
Conditions: RD rhabdomyosarcoma viability, CellTiter-Glo luminescence, 48 h; series mostly up to 46 µM
Inconclusive results are not listed. The source made the active and inactive calls. Calls follow the shape of the dose curve; as a rule, active = well fitted cell-killing curve with a large enough effect; inconclusive = small, poorly fitted or top-dose-only effect; inactive = flat fitted curve, though single readings scatter.
Permitted responses: active, inactive

OCc1ccccc1O[C@@H]1O[C@H](CO)[C@H](O)[C@H](O)[C@H]1O | inactive
C[C@H](O)[C@@H]1C(=O)N2C(C(=O)O)=C(S[C@@H]3CN[C@H](CNS(N)(=O)=O)C3)[C@@H](C)[C@@H]12 | inactive
N[C@H]1CN(c2c(F)cc3c(=O)c(C(=O)O)cn(C4C[C@@H]4F)c3c2Cl)CC12CC2 (stereo partly drawn) | inactive

### Prompt In this assay, the call recorded for COc1cccc2c1C(=O)c1c(O)c3c(c(O)c1C2=O)C[C@@](O)(C(C)=O)C[C@H]3O[C@H]1C[C@H](N)[C@H](O)[C@H](C)O1 was what?
### Response active

### Prompt In this assay, the call recorded for C[C@@]12C(=O)OC(=O)[C@@]1(C)C1CCC2O1 was what?
### Response active

### Prompt In this assay, the call recorded for Cn1cc(-c2ccc3ncc(Cc4ccc5ncccc5c4)n3n2)cn1 was what?
### Response inactive

### Prompt In this assay, the call recorded for C=CC(=O)Nc1cccc(Nc2nc(NC3CCC(N(C)C)CC3)nc3c2ncn3C(C)C)c1 (stereo not drawn) was what?
### Response active

### Prompt In this assay, the call recorded for CCOC(=O)C=C[C@H](C[C@@H]1CCNC1=O)NC(=O)[C@@H](CC(=O)[C@@H](NC(=O)c1cc(C)on1)C(C)C)Cc1ccc(F)cc1 was what?
### Response inactive
